Entries and their pIC50
target_under_test: CXCR4 (Homo sapiens, UniProt P61073)
Sequence (P61073 whole entry): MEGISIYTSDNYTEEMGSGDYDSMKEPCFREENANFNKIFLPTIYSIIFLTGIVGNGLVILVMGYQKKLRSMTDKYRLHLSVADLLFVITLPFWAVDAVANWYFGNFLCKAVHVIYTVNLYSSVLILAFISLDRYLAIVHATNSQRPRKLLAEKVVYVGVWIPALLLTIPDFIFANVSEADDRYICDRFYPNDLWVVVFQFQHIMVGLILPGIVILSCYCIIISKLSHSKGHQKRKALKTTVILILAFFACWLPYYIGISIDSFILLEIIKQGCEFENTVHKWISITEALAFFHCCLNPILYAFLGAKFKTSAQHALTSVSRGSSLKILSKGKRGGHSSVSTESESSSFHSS
experiment: Determination of IC50: competition with 125I-Fc-131 on CXCR4-positive Jurkat cells;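 note: test compound at 10^−5 to 10^−11 M competed for 2 h at 8 °C with the radioligand on 400,000 cells per well, bound versus free activity measured by γ-counting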
Type: binding
Set-up: CXCR4-positive Jurkat T lymphocyte cells were grown in Gibco's RPMI 1640 GlutaMAX medium; endogenous in cells; host or cells: Jurkat T lymphocyte cells (whole cells in suspension, 400.000 per tube)
assay_context: unlabeled or cold (natGa/natLu) compound vs 125I-Fc-131, Jurkat cells; read-out: IC50
pIC50: −log10 of the molar value. Non-standard residues stand in square brackets, D forms with d. Residues, ends and D or L forms follow the SMILES beside them. Groups on a side chain read outwards from the residue. *: point of attachment. DOTA = O=C(O)CN1CCN(CC(=O)O)CCN(CC(=O)*)CCN(CC(=O)O)CC1; dTyr(3-I) = N[C@H](Cc1ccc(O)c(I)c1)C(=O)O; 2Nal = N[C@@H](Cc1ccc2ccccc2c1)C(=O)O; dNMeOrn = CN[C@H](CCCN)C(=O)O; 4Amb = NCc1ccc(C(=O)O)cc1; 4Abz = Nc1ccc(C(=O)O)cc1; dDap = NC[C@@H](N)C(=O)O

# compound, pIC50
measured = [
    ("C[C@@H](NC(=O)[C@@H](CCCNC(=N)N)NC(=O)[C@@H](CN)NC(=O)CN1CCN(CC(=O)O)CCN(CC(=O)O)CCN(CC(=O)O)CC1)C(=O)NCc1ccc(C(=O)NCCC[C@@H]2C(=O)N[C@@H](CCCNC(=N)N)C(=O)N[C@@H](Cc3ccc4ccccc4c3)C(=O)NCC(=O)N[C@H](Cc3ccc(O)cc3)C(=O)N2C)cc1 [CXCR4-DOTA-1 [Lu]] (cyclo([dY][dNMeOrn]([4Amb-dA-dR-dDap-DOTA])R[2Nal]G))", 8.30),
    ("C[C@@H](NC(=O)[C@@H](CCCNC(=N)N)NC(=O)[C@@H](CN)NC(=O)CN1CCN(CC(=O)O)CCN(CC(=O)O)CCN(CC(=O)O)CC1)C(=O)Nc1ccc(C(=O)NCCC[C@@H]2C(=O)N[C@@H](CCCNC(=N)N)C(=O)N[C@@H](Cc3ccc4ccccc4c3)C(=O)NCC(=O)N[C@H](Cc3ccc(O)cc3)C(=O)N2C)cc1 [CXCR4-DOTA-3] (cyclo([dY][dNMeOrn]([4Abz-dA-dR-dDap-DOTA])R[2Nal]G))", 8.50),
    ("C[C@@H](NC(=O)[C@@H](CCCNC(=N)N)NC(=O)[C@@H](CN)NC(=O)CN1CCN(CC(=O)O)CCN(CC(=O)O)CCN(CC(=O)O)CC1)C(=O)Nc1ccc(C(=O)NCCC[C@@H]2C(=O)N[C@@H](CCCNC(=N)N)C(=O)N[C@@H](Cc3ccc4ccccc4c3)C(=O)NCC(=O)N[C@H](Cc3ccc(O)c(I)c3)C(=O)N2C)cc1 [CXCR4-DOTA-4] (cyclo([dTyr(3-I)][dNMeOrn]([4Abz-dA-dR-dDap-DOTA])R[2Nal]G))", 8.33),
    ("C[C@@H](NC(=O)[C@@H](CCCNC(=N)N)NC(=O)[C@@H](CN)NC(=O)CN1CCN(CC(=O)O)CCN(CC(=O)O)CCN(CC(=O)O)CC1)C(=O)NCc1ccc(C(=O)NCCC[C@@H]2C(=O)N[C@@H](CCCNC(=N)N)C(=O)N[C@@H](Cc3ccc4ccccc4c3)C(=O)NCC(=O)N[C@H](Cc3ccc(O)cc3)C(=O)N2C)cc1 [CXCR4-DOTA-1 [Ga]] (cyclo([dY][dNMeOrn]([4Amb-dA-dR-dDap-DOTA])R[2Nal]G))", 8.53),
]

----------
experiment: Biodistribution in Jurkat tumor-bearing CB-17 SCID mice
Type: in vivo
assay_context: female, CB-17 SCID, mouse, in vivo, iv, total radioactivity, % iD/g Lung
Non-standard residues stand in square brackets, D forms with d. Residues, ends and D or L forms follow the SMILES beside them. Groups on a side chain read outwards from the residue. *: point of attachment. DOTA = O=C(O)CN1CCN(CC(=O)O)CCN(CC(=O)*)CCN(CC(=O)O)CC1; dTyr(3-I) = N[C@H](Cc1ccc(O)c(I)c1)C(=O)O; 2Nal = N[C@@H](Cc1ccc2ccccc2c1)C(=O)O; dNMeOrn = CN[C@H](CCCN)C(=O)O; HYNIC = NNc1ccc(C(=O)*)cn1; 4Amb = NCc1ccc(C(=O)O)cc1; 4Abz = Nc1ccc(C(=O)O)cc1; dDap = NC[C@@H](N)C(=O)O
Each item that follows carries a reported tissue uptake at 1 h.

# compound, tissue uptake at 1 h / %ID/g
measured = [
    ("C[C@@H](NC(=O)[C@@H](CCCNC(=N)N)NC(=O)[C@@H](CN)NC(=O)CN1CCN(CC(=O)O)CCN(CC(=O)O)CCN(CC(=O)O)CC1)C(=O)NCc1ccc(C(=O)NCCC[C@@H]2C(=O)N[C@@H](CCCNC(=N)N)C(=O)N[C@@H](Cc3ccc4ccccc4c3)C(=O)NCC(=O)N[C@H](Cc3ccc(O)c(I)c3)C(=O)N2C)cc1 [CXCR4-DOTA-2 [Lu]] (cyclo([dTyr(3-I)][dNMeOrn]([4Amb-dA-dR-dDap-DOTA])R[2Nal]G))", 2.94),
    ("C[C@@H](NC(=O)[C@@H](CCCNC(=N)N)NC(=O)[C@@H](CN)NC(=O)CN1CCN(CC(=O)O)CCN(CC(=O)O)CCN(CC(=O)O)CC1)C(=O)Nc1ccc(C(=O)NCCC[C@@H]2C(=O)N[C@@H](CCCNC(=N)N)C(=O)N[C@@H](Cc3ccc4ccccc4c3)C(=O)NCC(=O)N[C@H](Cc3ccc(O)cc3)C(=O)N2C)cc1 [CXCR4-DOTA-3 [Lu]] (cyclo([dY][dNMeOrn]([4Abz-dA-dR-dDap-DOTA])R[2Nal]G))", 1.67),
    ("C[C@@H](NC(=O)[C@@H](CCCNC(=N)N)NC(=O)[C@@H](CN)NC(=O)CN1CCN(CC(=O)O)CCN(CC(=O)O)CCN(CC(=O)O)CC1)C(=O)Nc1ccc(C(=O)NCCC[C@@H]2C(=O)N[C@@H](CCCNC(=N)N)C(=O)N[C@@H](Cc3ccc4ccccc4c3)C(=O)NCC(=O)N[C@H](Cc3ccc(O)c(I)c3)C(=O)N2C)cc1 [CXCR4-DOTA-4 [Lu]] (cyclo([dTyr(3-I)][dNMeOrn]([4Abz-dA-dR-dDap-DOTA])R[2Nal]G))", 3.69),
    ("C[C@@H](NC(=O)[C@@H](CCCNC(=N)N)NC(=O)[C@@H](CN)NC(=O)c1ccc(NN)nc1)C(=O)Nc1ccc(C(=O)NCCC[C@@H]2C(=O)N[C@@H](CCCNC(=N)N)C(=O)N[C@@H](Cc3ccc4ccccc4c3)C(=O)NCC(=O)N[C@H](Cc3ccc(O)cc3)C(=O)N2C)cc1 [Tc-CXCR4-13] (cyclo([dY][dNMeOrn]([4Abz-dA-dR-dDap-HYNIC])R[2Nal]G))", 1.94),
    ("CN1C(=O)[C@@H](Cc2ccc(O)cc2)NC(=O)CNC(=O)[C@H](Cc2ccc3ccccc3c2)NC(=O)[C@H](CCCNC(=N)N)NC(=O)[C@H]1CCCNC(=O)c1ccc(CNC(=O)CN2CCN(CC(=O)O)CCN(CC(=O)O)CCN(CC(=O)O)CC2)cc1 [^68Ga-Pentixafor, metal not drawn, reference compound] (cyclo([dY][dNMeOrn]([4Amb-DOTA])R[2Nal]G))", 1.57),
    ("C[C@@H](NC(=O)[C@@H](CCCNC(=N)N)NC(=O)[C@@H](CN)NC(=O)CN1CCN(CC(=O)O)CCN(CC(=O)O)CCN(CC(=O)O)CC1)C(=O)NCc1ccc(C(=O)NCCC[C@@H]2C(=O)N[C@@H](CCCNC(=N)N)C(=O)N[C@@H](Cc3ccc4ccccc4c3)C(=O)NCC(=O)N[C@H](Cc3ccc(O)cc3)C(=O)N2C)cc1 [CXCR4-DOTA-1 [Lu]] (cyclo([dY][dNMeOrn]([4Amb-dA-dR-dDap-DOTA])R[2Nal]G))", 2.16),
    ("C[C@@H](NC(=O)[C@@H](CCCNC(=N)N)NC(=O)[C@@H](CN)NC(=O)CCCCCNC(=O)[C@@H](CNC(=O)CN1CCN(CC(=O)O)CCN(CC(=O)O)CCN(CC(=O)O)CC1)NC(=O)CCCCC[N+]1=C(/C=C/C=C/C=C2/N(C)c3ccc(S(=O)(=O)O)cc3C2(C)C)C(C)(C)c2cc(S(=O)(=O)[O-])ccc21)C(=O)Nc1ccc(C(=O)NCCC[C@@H]2C(=O)N[C@@H](CCCNC(=N)N)C(=O)N[C@@H](Cc3ccc4ccccc4c3)C(=O)NCC(=O)N[C@H](Cc3ccc(O)cc3)C(=O)N2C)cc1 [[^natLu]CXCR4-OI-3, metal not drawn]", 4.28),
]
